# System: SK-MES-1
# experimental-protocol: relative viability (nuclei count vs DMSO), 5 days (fraction); higher = more cells survive
# assay-setup: first compound 0.04 µM
Listed below: relative viability values for each entry.

molecule: Clc1ccc(Nc2nnc(Cc3ccncc3)c3ccccc23)cc1 [Vatalanib] + COc1cccc2cc(-c3nc([C@H]4CC[C@H](C(=O)O)CC4)n4ncnc(N)c34)[nH]c12 [OSI-027] (partner 0.5 µM)
result: 0.634
//
molecule: COc1cc(N2CCC(C(N)=O)CC2)ccc1Nc1nc(N)c(Cl)c(Nc2ccccc2S(=O)(=O)C(C)C)n1 [HG-5-88-01] + CC(=O)Nc1cccc(-n2c(=O)n(C3CC3)c(=O)c3c(Nc4ccc(I)cc4F)n(C)c(=O)c(C)c32)c1 [Trametinib] (partner 0.02 µM)
result: 0.535
//
molecule: COc1cc(N2CCC(C(N)=O)CC2)ccc1Nc1nc(N)c(Cl)c(Nc2ccccc2S(=O)(=O)C(C)C)n1 [HG-5-88-01] + COc1cc2c(Oc3ccc(NC(=O)C4(C(=O)Nc5ccc(F)cc5)CC4)cc3F)ccnc2cc1OCCCN1CCOCC1 [Foretinib] (partner 0.25 µM)
result: 0.875

--- query ---
Query: May I ask what relative viability has been recorded for COc1cc(N2CCC(C(N)=O)CC2)ccc1Nc1nc(N)c(Cl)c(Nc2ccccc2S(=O)(=O)C(C)C)n1 [HG-5-88-01] + COc1cccc2cc(-c3nc([C@H]4CC[C@H](C(=O)O)CC4)n4ncnc(N)c34)[nH]c12 [OSI-027] (partner 0.5 µM) ?
Reply: 0.603

---

Listed below: relative viability values for each entry.
# Test system: NCI-H1915
# experimental-protocol: relative viability (nuclei count vs DMSO), 5 days (fraction); higher = more cells survive
# assay-setup: first compound 0.04 µM
Format: numeric value only, no unit, no commentary.

compound: COc1cc(N2CCC(C(N)=O)CC2)ccc1Nc1nc(N)c(Cl)c(Nc2ccccc2S(=O)(=O)C(C)C)n1 [HG-5-88-01] + NC(=O)Nc1cc(-c2cccc(F)c2)sc1C(=O)N[C@H]1CCCNC1 [AZD7762] (partner 0.2 µM)
relative viability: 0.69
--
compound: COc1cc(N2CCC(C(N)=O)CC2)ccc1Nc1nc(N)c(Cl)c(Nc2ccccc2S(=O)(=O)C(C)C)n1 [HG-5-88-01] + O=C(CCCCCCC(=O)Nc1ccccc1)NO [Vorinostat] (partner 1 µM)
relative viability: 0.476
--
compound: C[C@@H]1CN(CC(=O)Nc2ccc3c(c2)Cc2cccc(-c4cc(=O)cc(N5CCOCC5)o4)c2S3)C[C@H](C)O1 + Cc1cc(Nc2cc(N3CCN(C)CC3)nc(Sc3ccc(NC(=O)C4CC4)cc3)n2)n[nH]1 [Tozasertib] (partner 0.1 µM)
relative viability: 0.364
--
compound: C[C@@H]1CN(CC(=O)Nc2ccc3c(c2)Cc2cccc(-c4cc(=O)cc(N5CCOCC5)o4)c2S3)C[C@H](C)O1 + CC1(C)CCC(c2ccc(Cl)cc2)=C(CN2CCN(c3ccc(C(=O)NS(=O)(=O)c4ccc(N[C@H](CCN5CCOCC5)CSc5ccccc5)c(S(=O)(=O)C(F)(F)F)c4)cc3)CC2)C1 [Navitoclax] (partner 0.5 µM)
relative viability: 0.792
--
compound: C[C@@H]1CN(CC(=O)Nc2ccc3c(c2)Cc2cccc(-c4cc(=O)cc(N5CCOCC5)o4)c2S3)C[C@H](C)O1 + O=C(CCCCCCC(=O)Nc1ccccc1)NO [Vorinostat] (partner 1 µM)
relative viability: 0.434
--
compound: Clc1ccc(Nc2nnc(Cc3ccncc3)c3ccccc23)cc1 [Vatalanib] + O=C(c1cc(Cc2n[nH]c(=O)c3ccccc23)ccc1F)N1CCN(C(=O)C2CC2)CC1 [Olaparib] (partner 8 µM)
relative viability: 0.258
--
compound: Clc1ccc(Nc2nnc(Cc3ccncc3)c3ccccc23)cc1 [Vatalanib] + CCNC(=O)c1noc(-c2cc(C(C)C)c(O)cc2O)c1-c1ccc(CN2CCOCC2)cc1 [Luminespib] (partner 0.01 µM)
relative viability: 0.847

--- query ---
Query: May I ask what relative viability has been recorded for COc1cc(N2CCC(C(N)=O)CC2)ccc1Nc1nc(N)c(Cl)c(Nc2ccccc2S(=O)(=O)C(C)C)n1 [HG-5-88-01] + CC1(C)CCC(c2ccc(Cl)cc2)=C(CN2CCN(c3ccc(C(=O)NS(=O)(=O)c4ccc(N[C@H](CCN5CCOCC5)CSc5ccccc5)c(S(=O)(=O)C(F)(F)F)c4)cc3)CC2)C1 [Navitoclax] (partner 0.5 µM) ?
Reply: 0.771

---

Listed below: relative viability values for each entry.
# Tested on: NCI-H322M
# experimental-protocol: relative viability (nuclei count vs DMSO), 5 days (fraction); higher = more cells survive
# assay-setup: first compound 0.1265 µM
Format: numeric value only, no unit, no commentary.

Past entries and their recorded results:
compound: Clc1ccc(Nc2nnc(Cc3ccncc3)c3ccccc23)cc1 [Vatalanib] + CC(=O)c1c(C)c2cnc(Nc3ccc(N4CCNCC4)cn3)nc2n(C2CCCC2)c1=O [Palbociclib] (partner 0.5 µM)
relative viability: 0.492

compound: Clc1ccc(Nc2nnc(Cc3ccncc3)c3ccccc23)cc1 [Vatalanib] + COc1cccc2cc(-c3nc([C@H]4CC[C@H](C(=O)O)CC4)n4ncnc(N)c34)[nH]c12 [OSI-027] (partner 0.5 µM)
relative viability: 0.546

compound: COc1cc(N2CCC(C(N)=O)CC2)ccc1Nc1nc(N)c(Cl)c(Nc2ccccc2S(=O)(=O)C(C)C)n1 [HG-5-88-01] + CC(=O)Nc1cccc(-n2c(=O)n(C3CC3)c(=O)c3c(Nc4ccc(I)cc4F)n(C)c(=O)c(C)c32)c1 [Trametinib] (partner 0.02 µM)
relative viability: 0.459

compound: COc1cc(N2CCC(C(N)=O)CC2)ccc1Nc1nc(N)c(Cl)c(Nc2ccccc2S(=O)(=O)C(C)C)n1 [HG-5-88-01] + Cc1cc(Nc2cc(N3CCN(C)CC3)nc(Sc3ccc(NC(=O)C4CC4)cc3)n2)n[nH]1 [Tozasertib] (partner 0.1 µM)
relative viability: 0.443

compound: C[C@@H]1CN(CC(=O)Nc2ccc3c(c2)Cc2cccc(-c4cc(=O)cc(N5CCOCC5)o4)c2S3)C[C@H](C)O1 + Cc1cc(Nc2cc(N3CCN(C)CC3)nc(Sc3ccc(NC(=O)C4CC4)cc3)n2)n[nH]1 [Tozasertib] (partner 0.1 µM)
relative viability: 0.486

Query: May I ask what relative viability has been recorded for Clc1ccc(Nc2nnc(Cc3ccncc3)c3ccccc23)cc1 [Vatalanib] + Cc1nc(NC(=O)N2CCC[C@H]2C(N)=O)sc1-c1ccnc(C(C)(C)C(F)(F)F)c1 [Alpelisib] (partner 2 µM) ?
Reply: 0.709

Query: May I ask what relative viability has been recorded for COc1cc(N2CCC(C(N)=O)CC2)ccc1Nc1nc(N)c(Cl)c(Nc2ccccc2S(=O)(=O)C(C)C)n1 [HG-5-88-01] + C[C@]1(O)C[C@@H](c2nc(-c3ccc4ccc(-c5ccccc5)nc4c3)c3c(N)nccn32)C1 [Linsitinib] (partner 1 µM) ?
Reply: 0.922

Query: May I ask what relative viability has been recorded for Clc1ccc(Nc2nnc(Cc3ccncc3)c3ccccc23)cc1 [Vatalanib] + C[C@]1(O)C[C@@H](c2nc(-c3ccc4ccc(-c5ccccc5)nc4c3)c3c(N)nccn32)C1 [Linsitinib] (partner 1 µM) ?
Reply: 0.83

---

# System: NCI-H1792
# experimental-protocol: relative viability (nuclei count vs DMSO), 5 days (fraction); higher = more cells survive
# assay-setup: first compound 0.04 µM
readout-name: relative viability
Format: numeric value only, no unit, no commentary.

compound: COc1cc(N2CCC(C(N)=O)CC2)ccc1Nc1nc(N)c(Cl)c(Nc2ccccc2S(=O)(=O)C(C)C)n1 [HG-5-88-01] + Nc1ncn([C@H]2C[C@H](O)[C@@H](CO)O2)c(=O)n1 [Decitabine] (partner 2 µM)
recorded-number: 0.628
--
compound: COc1cc(N2CCC(C(N)=O)CC2)ccc1Nc1nc(N)c(Cl)c(Nc2ccccc2S(=O)(=O)C(C)C)n1 [HG-5-88-01] + CC(=O)c1c(C)c2cnc(Nc3ccc(N4CCNCC4)cn3)nc2n(C2CCCC2)c1=O [Palbociclib] (partner 0.5 µM)
recorded-number: 0.74
--
compound: COc1cc(N2CCC(C(N)=O)CC2)ccc1Nc1nc(N)c(Cl)c(Nc2ccccc2S(=O)(=O)C(C)C)n1 [HG-5-88-01] + C[C@@H](Oc1cc(-c2cnn(C3CCNCC3)c2)cnc1N)c1c(Cl)ccc(F)c1Cl [Crizotinib] (partner 1 µM)
recorded-number: 1.11

--- query ---
Query: May I ask what relative viability has been recorded for COc1cc(N2CCC(C(N)=O)CC2)ccc1Nc1nc(N)c(Cl)c(Nc2ccccc2S(=O)(=O)C(C)C)n1 [HG-5-88-01] + CS(=O)(=O)CCNCc1ccc(-c2ccc3ncnc(Nc4ccc(OCc5cccc(F)c5)c(Cl)c4)c3c2)o1 [Lapatinib] (partner 2 µM) ?
Reply: 0.792
